Assay: Plasma pharmacokinetics with loading dose and weekly or twice weekly maintenance dosing, fed (Example 5)
Format: in vivo, human
Conditions: human, plasma, oral, 450 mg, Panel II (450 mg BID Days 1-2, then 450 mg Q3D/Q4D; SF2a/b, fed), Day 27; read-out: Mean AUC72 h (SD)
RECORDED ENDPOINT: AUC(0-t)
# answer = value followed by unit

Value of measured AUC(0-t) for the entry COc1cc(NC(C(=O)c2c[nH]c3ccc(OC(F)(F)F)cc23)c2ccc(Cl)cc2OC)cc(S(C)(=O)=O)c1 (stereo not shown) : 197 µg·h/mL

###

Test: Effect of food on plasma pharmacokinetics after single oral dose of SF2a/b (Example 2)
Type: in vivo, human
Details: both sexes, human, plasma, oral, 50 mg, Treatment I: single 50 mg (SF2a), fed, standardized breakfast; read-out: AUClast, Median
RECORDED ENDPOINT: AUC(0-t) (ng·h/mL)
Field: numeric (ng·h/mL). Do not append units.

Value of measured AUC(0-t) for the entry COc1cc(NC(C(=O)c2c[nH]c3ccc(OC(F)(F)F)cc23)c2ccc(Cl)cc2OC)cc(S(C)(=O)=O)c1 (stereo not shown) : 20400

###

Experiment: Plasma pharmacokinetics with loading dose and weekly or twice weekly maintenance dosing, fed (Example 5)
Format: in vivo, human
Settings: human, plasma, oral, 150 mg, Panel IV (150 mg BID Days 1-2, then 150 mg Q3D/Q4D; SF2a/b, fed), Day 27; read-out: Mean AUC∞ (SD)
RECORDED ENDPOINT: AUC(0-inf) (µg·h/mL)
Field: numeric (µg·h/mL). Do not append units.

Value of measured AUC(0-inf) for the entry COc1cc(NC(C(=O)c2c[nH]c3ccc(OC(F)(F)F)cc23)c2ccc(Cl)cc2OC)cc(S(C)(=O)=O)c1 (stereo not shown) [Compound (a)] : 274

###

Assay: Effect of food on plasma pharmacokinetics after single oral dose of SF2a/b (Example 2)
Format: in vivo, human
Details: both sexes, human, plasma, oral, 800 mg, 800 mg SF2b, fed, high-fat, high-calorie breakfast; read-out: Cmax, Geometric LS Means Treatment K
RECORDED ENDPOINT: Cmax (ng/mL)
Field: numeric (ng/mL). Do not append units.

Value of measured Cmax for the entry COc1cc(NC(C(=O)c2c[nH]c3ccc(OC(F)(F)F)cc23)c2ccc(Cl)cc2OC)cc(S(C)(=O)=O)c1 (stereo not shown) : 4050

###

Assay: Effect of food on plasma pharmacokinetics after single oral dose of SF2a/b (Example 2)
Format: in vivo, human
Conditions: both sexes, human, plasma, oral, 50 mg, Treatment H: single 50 mg (SF2a), fasted; read-out: AUClast, Geo. Mean
RECORDED ENDPOINT: AUC(0-t)
# answer = value followed by unit

Value of measured AUC(0-t) for the entry COc1cc(NC(C(=O)c2c[nH]c3ccc(OC(F)(F)F)cc23)c2ccc(Cl)cc2OC)cc(S(C)(=O)=O)c1 (stereo not shown) : 18000 ng·h/mL

###

Assay: Effect of food on plasma pharmacokinetics after single oral dose of SF2a/b (Example 2)
Assay type: in vivo, human
Settings: both sexes, human, plasma, oral, 50 mg, Treatment H: single 50 mg (SF2a), fasted; read-out: tmax, Median
RECORDED ENDPOINT: Tmax (h)
Field: numeric (h). Do not append units.

Value of measured Tmax for the entry COc1cc(NC(C(=O)c2c[nH]c3ccc(OC(F)(F)F)cc23)c2ccc(Cl)cc2OC)cc(S(C)(=O)=O)c1 (stereo not shown) : 7

###

Assay: Effect of food on plasma pharmacokinetics after single oral dose of SF2a/b (Example 2)
Type: in vivo, human
Details: both sexes, human, plasma, oral, 200 mg, Treatment F: single 200 mg (SF2b), fasted; read-out: AUC∞, Mean
Method: The effect of food on the pharmacokinetics (PK) of Compound (a) was assessed in healthy participants after a single oral dose of SF2a/b, described in Example 1, administered at different dose levels in a randomized single dose, 2-period crossover study. […]
RECORDED ENDPOINT: AUC(0-inf) (ng·h/mL)
Field: numeric (ng·h/mL). Do not append units.

Value of measured AUC(0-inf) for the entry COc1cc(NC(C(=O)c2c[nH]c3ccc(OC(F)(F)F)cc23)c2ccc(Cl)cc2OC)cc(S(C)(=O)=O)c1 (stereo not shown) : 62000

###

Assay: Plasma pharmacokinetics with loading dose and weekly or twice weekly maintenance dosing, fed (Example 5)
Assay type: in vivo, human
Conditions: human, plasma, oral; Panel II (450 mg BID Days 1-2, then 450 mg Q3D/Q4D; SF2a/b, fed), Day 3; read-out: Mean C72 h (SD)
RECORDED ENDPOINT: concentration at 72 h (ng/mL)
Field: numeric (ng/mL). Do not append units.

Value of measured concentration at 72 h for the entry COc1cc(NC(C(=O)c2c[nH]c3ccc(OC(F)(F)F)cc23)c2ccc(Cl)cc2OC)cc(S(C)(=O)=O)c1 (stereo not shown) : 2710
